# assay.summary: in vivo
# measurement.setup: male, Gottingen, minipig, in vivo, iv, 4 ug/kg, Cmax
# Description: Salmeterol xinafoate was formulated in 5% PEG-400 in 0.9% saline, USP, at concentrations of 0.1, 1, 10, and 100 μg/mL. 1 male and 1 female non-naive Gottingen minipigs (18.4 to 19.5 kg at the time of the IV dose) were utilized. […] Plasma samples were analyzed for salmeterol using a qualified liquid chromatography/mass spectrometry/mass mass spectrometry (LC/MS/MS) method. The lower limit of quantitation (LLOQ) was 2.50 pg/mL. Samples were analyzed within a maximum of 14.0 days of collection. […]
parameter.measured: Cmax (ng/mL)
Give bare numbers, in ng/mL.

Value lookup for Cmax; key = OCc1cc(C(O)CNCCCCCCOCCCCc2ccccc2)ccc1O (racemic)
4.29
